All figures here come from ChEMBL document CHEMBL5550212.

Assign half-life to each entry below.
test protocol: Half-life in C57BL/6 mouse at 1 mg/kg, po measured upto 24 hrs by LC-MS/MS analysis
Assay type: ADME, organism-based
condition: in vivo
Please respond with the number in h and leave the unit unwritten.

Record `O=C1CC[C@H](N2Cc3cc(N4CCN(CC5CCN(c6ccc([C@@H]7c8ccc(O)cc8CC[C@@H]7c7ccccc7)cc6)CC5)CC4)ccc3C2=O)C(=O)N1` . Reported half-life: 6.2

Record COc1cc(O[C@H]2C(C)(C)[C@H](NC(=O)c3ccc(N4CCC(CN5CCN(c6ccc(C(=O)N[C@H]7CCC(=O)NC7=O)c(F)c6)CC5)CC4)cc3)C2(C)C)ccc1C#N [LUXDEGALUTAMIDE] . Reported half-life: 6.8

Record N#Cc1ccc(O[C@H]2CC[C@H](NC(=O)c3ccc(N4CCC(CN5CCN(c6cc7c(cc6F)C(=O)N(C6CCC(=O)NC6=O)C7=O)CC5)CC4)nn3)CC2)cc1Cl (stereo partly drawn) [BAVDEGALUTAMIDE] . Reported half-life: 13

----------
Assign bioavailability to each entry below.
test protocol: Oral bioavailability in Beagle dog at 1 mg/kg measured upto 24 hrs by LC-MS/MS analysis
Assay type: ADME, organism-based, Canis lupus familiaris
condition: in vivo
Please respond with the number in % and leave the unit unwritten.

Record N#Cc1ccc(O[C@H]2CC[C@H](NC(=O)c3ccc(N4CCC(CN5CCN(c6cc7c(cc6F)C(=O)N(C6CCC(=O)NC6=O)C7=O)CC5)CC4)nn3)CC2)cc1Cl (some centres undefined) [BAVDEGALUTAMIDE] . Reported bioavailability: 14

Record Cn1c(=O)n(C2CCC(=O)NC2=O)c2cccc(C#CCOC3CCN(C[C@H]4CC[C@H](n5cc(NC(=O)c6cnn7ccc(N8C[C@H]9C[C@@H]8CO9)nc67)c(C(F)F)n5)CC4)CC3)c21 (some centres undefined) . Reported bioavailability: 51

Record COc1cc(O[C@H]2C(C)(C)[C@H](NC(=O)c3ccc(N4CCC(CN5CCN(c6ccc(C(=O)N[C@H]7CCC(=O)NC7=O)c(F)c6)CC5)CC4)cc3)C2(C)C)ccc1C#N [LUXDEGALUTAMIDE] . Reported bioavailability: 33

Record `O=C1CC[C@H](N2Cc3cc(N4CCN(CC5CCN(c6ccc([C@@H]7c8ccc(O)cc8CC[C@@H]7c7ccccc7)cc6)CC5)CC4)ccc3C2=O)C(=O)N1` . Reported bioavailability: 5

----------
Assign bioavailability to each entry below.
test protocol: Oral bioavailability in Han Wistar rat at 1 mg/kg measured upto 24 hrs by LC-MS/MS analysis
Type: ADME, organism-based
condition: in vivo
Please respond with the number in % and leave the unit unwritten.

Record COc1cc(O[C@H]2C(C)(C)[C@H](NC(=O)c3ccc(N4CCC(CN5CCN(c6ccc(C(=O)N[C@H]7CCC(=O)NC7=O)c(F)c6)CC5)CC4)cc3)C2(C)C)ccc1C#N [LUXDEGALUTAMIDE] . Reported bioavailability: 38

Record N#Cc1ccc(O[C@H]2CC[C@H](NC(=O)c3ccc(N4CCC(CN5CCN(c6cc7c(cc6F)C(=O)N(C6CCC(=O)NC6=O)C7=O)CC5)CC4)nn3)CC2)cc1Cl (some centres undefined) [BAVDEGALUTAMIDE] . Reported bioavailability: 51

Record O=C1CC[C@H](N2Cc3cc(N4CCN(CC5CCN(c6ccc([C@@H]7c8ccc(O)cc8CC[C@@H]7c7ccccc7)cc6)CC5)CC4)ccc3C2=O)C(=O)N1 [VEPDEGESTRANT] . Reported bioavailability: 24

Record Cn1c(=O)n(C2CCC(=O)NC2=O)c2cccc(C#CCOC3CCN(C[C@H]4CC[C@H](n5cc(NC(=O)c6cnn7ccc(N8C[C@H]9C[C@@H]8CO9)nc67)c(C(F)F)n5)CC4)CC3)c21 (some centres undefined) [KT-474] . Reported bioavailability: 7

----------
test protocol: Oral bioavailability in C57BL/6 mouse at 1 mg/kg measured upto 24 hrs by LC-MS/MS analysis
Format: ADME, organism-based
condition: in vivo
Kindly return T if reported bioavailability is no lower than 40%; return F if it is lower.

Query :: Quick check, bioavailability >= 40%? N#Cc1ccc(O[C@H]2CC[C@H](NC(=O)c3ccc(N4CCC(CN5CCN(c6cc7c(cc6F)C(=O)N(C6CCC(=O)NC6=O)C7=O)CC5)CC4)nn3)CC2)cc1Cl (stereo partly specified) [BAVDEGALUTAMIDE]
Result :: T

Query :: Quick check, bioavailability >= 40%? C[C@@H]1Cc2c([nH]c3ccccc23)[C@@H](c2cnc(N3CCC(CN4CCN(c5ccc6c(c5)CN(C5CCC(=O)NC5=O)C6=O)CC4)CC3)nc2)N1CC(C)(C)F (stereo partly specified)
Result :: T

Query :: Quick check, bioavailability >= 40%? C[C@@H]1Cc2c([nH]c3ccccc23)[C@@H](c2cnc(N3CCC(CCN4CCN(c5ccc6c(c5)CN(C5CCC(=O)NC5=O)C6=O)CC4)CC3)nc2)N1CC(C)(C)F (stereo partly specified)
Result :: F

Query :: Quick check, bioavailability >= 40%? C[C@@H]1Cc2c([nH]c3ccccc23)[C@@H](c2cnc(N3CCC(CNC4CCN(c5ccc6c(c5)CN(C5CCC(=O)NC5=O)C6=O)CC4)CC3)nc2)N1CC(C)(C)F (stereo partly specified)
Result :: F

Query :: Quick check, bioavailability >= 40%? COc1cc(O[C@H]2C(C)(C)[C@H](NC(=O)c3ccc(N4CCC(CN5CCN(c6ccc(C(=O)N[C@H]7CCC(=O)NC7=O)c(F)c6)CC5)CC4)cc3)C2(C)C)ccc1C#N [LUXDEGALUTAMIDE]
Result :: T

Query :: Quick check, bioavailability >= 40%? C[C@@H]1Cc2c([nH]c3ccccc23)[C@@H](c2cnc(N3CCC(CN(C)C4CCN(c5ccc6c(c5)CN(C5CCC(=O)NC5=O)C6=O)CC4)CC3)nc2)N1CC(C)(C)F (stereo partly specified)
Result :: F

----------
test protocol: Oral bioavailability in C57BL/6 mouse at 1 mg/kg measured upto 24 hrs by LC-MS/MS analysis
Format: ADME, organism-based
condition: in vivo
Assign bioavailability to each entry below.

Record Cn1c(=O)n(C2CCC(=O)NC2=O)c2cccc(C#CCOC3CCN(C[C@H]4CC[C@H](n5cc(NC(=O)c6cnn7ccc(N8C[C@H]9C[C@@H]8CO9)nc67)c(C(F)F)n5)CC4)CC3)c21 (stereo not given in full) . Reported bioavailability: 24%

Record C[C@@H]1Cc2c(n(C)c3ccccc23)[C@@H](c2cnc(N3CCC(CCN4CCN(c5ccc6c(c5)CN(C5CCC(=O)NC5=O)C6=O)CC4)CC3)nc2)N1CC(C)(C)F (mixture of isomers) . Reported bioavailability: 38%

Record `O=C1CC[C@H](N2Cc3cc(N4CCN(CC5CCN(c6ccc([C@@H]7c8ccc(O)cc8CC[C@@H]7c7ccccc7)cc6)CC5)CC4)ccc3C2=O)C(=O)N1` . Reported bioavailability: 59%

Record C[C@@H]1Cc2c([nH]c3ccccc23)[C@@H](c2cnc(N3CCC(NC4CCN(c5ccc6c(c5)CN(C5CCC(=O)NC5=O)C6=O)CC4)CC3)nc2)N1CC(C)(C)F (stereo not given in full) . Reported bioavailability: < 1%

Record `Cc1ncsc1-c1ccc([C@H](C)NC(=O)[C@@H]2C[C@@H](O)CN2C(=O)[C@@H](NC(=O)COCCCCCNc2ccc(C(=O)N[C@H]3C(C)(C)[C@H](Oc4ccc(C#N)c(Cl)c4)C3(C)C)cc2)C(C)(C)C)cc1` . Reported bioavailability: 2%

----------
test protocol: Clearance in Han Wistar rat at 1 mg/kg, po measured upto 24 hrs by LC-MS/MS analysis
Type: ADME, organism-based
condition: in vivo
observed property: CL/F (L/h/kg)
Please respond with the number in L/h/kg and leave the unit unwritten.

Record N#Cc1ccc(O[C@H]2CC[C@H](NC(=O)c3ccc(N4CCC(CN5CCN(c6cc7c(cc6F)C(=O)N(C6CCC(=O)NC6=O)C7=O)CC5)CC4)nn3)CC2)cc1Cl (some centres undefined) [BAVDEGALUTAMIDE] . Reported CL/F: 0.54

Record Cn1c(=O)n(C2CCC(=O)NC2=O)c2cccc(C#CCOC3CCN(C[C@H]4CC[C@H](n5cc(NC(=O)c6cnn7ccc(N8C[C@H]9C[C@@H]8CO9)nc67)c(C(F)F)n5)CC4)CC3)c21 (some centres undefined) [KT-474] . Reported CL/F: 3.06

Record O=C1CC[C@H](N2Cc3cc(N4CCN(CC5CCN(c6ccc([C@@H]7c8ccc(O)cc8CC[C@@H]7c7ccccc7)cc6)CC5)CC4)ccc3C2=O)C(=O)N1 [VEPDEGESTRANT] . Reported CL/F: 1.68

Record COc1cc(O[C@H]2C(C)(C)[C@H](NC(=O)c3ccc(N4CCC(CN5CCN(c6ccc(C(=O)N[C@H]7CCC(=O)NC7=O)c(F)c6)CC5)CC4)cc3)C2(C)C)ccc1C#N [LUXDEGALUTAMIDE] . Reported CL/F: 0.96
